# assay.summary: in vivo
# Assay type: in vivo, mouse
# condition.details: male, C57BL/6, mouse, in vivo, iv, 2 mg/kg, 321 in plasma after 321 IV 2 mg/kg
readout: half-life

smiles.representation: COc1ccc([C@@]23CCC(OP(=O)(OC(C)C)OC(C)C)=C[C@@H]2N(C)CC3)cc1OC
readout: half-life
result: 21.6 min

###

# assay.summary: Metabolic Stability in Human Hepatocytes
# Type: in vitro ADME
# condition.details: cryopreserved human hepatocytes, 37° C.
The entries below come with measured half-life at 1 μM values attached.

molecule: COc1ccc([C@@]23CCC(OP(=O)(O)OCOC(=O)C(C)(C)C)=C[C@@H]2N(C)CC3)cc1OC [Compound 409]
half-life at 1 μM / h: 25.7
//
molecule: COc1ccc([C@@]23CCC(OP(=O)(OC(C)C)OC(C)C)=C[C@@H]2N(C)CC3)cc1OC [Compound 321]
half-life at 1 μM / h: 0.383
//
molecule: COc1ccc([C@@]23CCC(OP4(=O)OC(C)CC(C)O4)=C[C@@H]2N(C)CC3)cc1OC (stereo partly drawn) [Compound 423]
half-life at 1 μM / h: 0.95
//
molecule: COc1ccc([C@@]23CCC(OP(=O)(O)OCOC(=O)C(C)C)=C[C@@H]2N(C)CC3)cc1OC [Compound 408]
half-life at 1 μM / h: 3.67
//
molecule: COc1ccc([C@@]23CCC(OP4(=O)OCCCO4)=C[C@@H]2N(C)CC3)cc1OC [Compound 422]
half-life at 1 μM / h: 6.1
//
molecule: COc1ccc([C@@]23CCC(OP4(=O)OCC(C)(C)CO4)=C[C@@H]2N(C)CC3)cc1OC [Compound 323]
half-life at 1 μM / h: 5.45
